Data provenance: patent US20080044360A1

# assay system: T1, human collagen type I, acid soluble, extracted from placenta (Sigma C7774) (human, UniProt P02452 162-1218; P08123 80-1119)
# T1 construct: tissue extract, gelled and dried in wells; also called dried human collagen; h-Collagen
# T1 sequence (P02452 162-1218 limits assumed, chain 1 of 2): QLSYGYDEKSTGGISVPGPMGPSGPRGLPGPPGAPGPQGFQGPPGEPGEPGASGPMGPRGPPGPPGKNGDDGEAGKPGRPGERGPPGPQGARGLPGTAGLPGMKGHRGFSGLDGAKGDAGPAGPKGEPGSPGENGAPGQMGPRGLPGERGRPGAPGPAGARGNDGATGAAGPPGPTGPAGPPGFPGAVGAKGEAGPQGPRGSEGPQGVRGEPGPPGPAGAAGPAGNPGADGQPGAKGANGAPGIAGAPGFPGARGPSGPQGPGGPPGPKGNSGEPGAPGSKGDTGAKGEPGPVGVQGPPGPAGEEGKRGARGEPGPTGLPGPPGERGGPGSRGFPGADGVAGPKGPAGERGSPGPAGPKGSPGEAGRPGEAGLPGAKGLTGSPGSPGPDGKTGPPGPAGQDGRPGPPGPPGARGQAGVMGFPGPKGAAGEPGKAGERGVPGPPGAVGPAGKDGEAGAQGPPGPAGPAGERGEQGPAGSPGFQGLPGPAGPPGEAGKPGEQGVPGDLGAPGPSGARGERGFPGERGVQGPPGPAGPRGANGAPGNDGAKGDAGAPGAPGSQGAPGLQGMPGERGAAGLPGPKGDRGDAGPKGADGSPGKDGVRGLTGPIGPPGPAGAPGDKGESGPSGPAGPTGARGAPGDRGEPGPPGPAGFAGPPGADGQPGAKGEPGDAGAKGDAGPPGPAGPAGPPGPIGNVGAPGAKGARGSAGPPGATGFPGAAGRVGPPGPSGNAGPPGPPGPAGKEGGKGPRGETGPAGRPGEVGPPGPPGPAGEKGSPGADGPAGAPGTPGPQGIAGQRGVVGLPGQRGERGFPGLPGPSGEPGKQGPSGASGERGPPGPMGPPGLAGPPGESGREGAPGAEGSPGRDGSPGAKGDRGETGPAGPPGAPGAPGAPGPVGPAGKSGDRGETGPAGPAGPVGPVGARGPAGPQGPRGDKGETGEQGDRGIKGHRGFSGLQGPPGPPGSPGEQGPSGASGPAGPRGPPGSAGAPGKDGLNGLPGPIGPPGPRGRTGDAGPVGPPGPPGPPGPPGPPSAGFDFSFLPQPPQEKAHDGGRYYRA
# T1 sequence (P08123 80-1119 limits assumed, chain 2 of 2): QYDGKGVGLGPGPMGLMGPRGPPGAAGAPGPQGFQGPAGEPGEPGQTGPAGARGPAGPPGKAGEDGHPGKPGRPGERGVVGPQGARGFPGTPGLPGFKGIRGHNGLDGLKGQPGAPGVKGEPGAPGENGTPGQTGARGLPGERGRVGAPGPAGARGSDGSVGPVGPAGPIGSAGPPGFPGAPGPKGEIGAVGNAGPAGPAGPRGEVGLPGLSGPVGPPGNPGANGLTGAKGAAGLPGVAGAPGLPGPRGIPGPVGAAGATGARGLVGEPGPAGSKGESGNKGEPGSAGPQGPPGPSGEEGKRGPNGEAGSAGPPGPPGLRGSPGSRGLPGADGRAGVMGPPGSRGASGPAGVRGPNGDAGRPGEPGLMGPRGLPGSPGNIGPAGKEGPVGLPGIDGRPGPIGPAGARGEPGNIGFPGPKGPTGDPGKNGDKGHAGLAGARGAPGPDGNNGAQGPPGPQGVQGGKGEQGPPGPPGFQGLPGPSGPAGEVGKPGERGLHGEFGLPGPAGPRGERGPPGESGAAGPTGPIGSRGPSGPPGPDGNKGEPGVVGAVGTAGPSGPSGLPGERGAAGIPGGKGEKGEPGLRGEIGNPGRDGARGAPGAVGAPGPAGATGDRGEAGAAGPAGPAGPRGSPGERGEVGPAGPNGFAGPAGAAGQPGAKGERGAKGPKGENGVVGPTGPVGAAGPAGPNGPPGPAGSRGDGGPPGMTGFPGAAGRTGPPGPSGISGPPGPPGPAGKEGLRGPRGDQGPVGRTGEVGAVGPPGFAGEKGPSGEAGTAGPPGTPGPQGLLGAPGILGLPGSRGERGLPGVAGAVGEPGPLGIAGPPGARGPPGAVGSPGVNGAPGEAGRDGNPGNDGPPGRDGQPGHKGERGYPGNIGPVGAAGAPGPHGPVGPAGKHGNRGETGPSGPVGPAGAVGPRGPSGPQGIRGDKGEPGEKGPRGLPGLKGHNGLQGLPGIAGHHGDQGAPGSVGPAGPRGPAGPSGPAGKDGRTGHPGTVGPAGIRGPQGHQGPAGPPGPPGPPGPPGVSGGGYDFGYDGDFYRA
# assay explanation: dried collagen assay
Bridge positions count the residues as written; N and C are the ends. Square brackets hold non-standard residues; d marks the D form. Primed or numbered codes have the meaning given here. Ends that are not written are not given here. Tyr(3-NO2) = N[C@@H](Cc1ccc(O)c([N+](=O)[O-])c1)C(=O)O; Gd^D = GdDOTAGA (gadolinium DOTAGA chelate); Gd^T = not defined here; Gd^T″ = GdDTPA-thiourea
experimental endpoint: % bound (%)
// units = %; emit number, no label

Which % bound reading was recorded for the binder {Gd^T″}-GQWHCTTK(Gd^T″)FPHHYCLYG (disulfide 5-14 (inferred); not fully specified (C-terminus)) [Compound ID 813] ?
65

Which % bound reading was recorded for the binder {Gd^T}-DWTC[Tyr(3-NO2)]GDEYTWHCNYE (disulfide 4-13 (inferred); not fully specified (C-terminus); reading uncertain) [Compound ID 843] ?
55

Which % bound reading was recorded for the binder {Gd^D}-K(Gd^D)K(Gd^D)AWHCYTYFPHHYCVYG (disulfide 6-15 (inferred)) [Compound ID 1016] ?
48
